Target: androgen receptor (AR) (Homo sapiens, UniProt P10275, T878A)
Sequence (P10275 1-920 T878A): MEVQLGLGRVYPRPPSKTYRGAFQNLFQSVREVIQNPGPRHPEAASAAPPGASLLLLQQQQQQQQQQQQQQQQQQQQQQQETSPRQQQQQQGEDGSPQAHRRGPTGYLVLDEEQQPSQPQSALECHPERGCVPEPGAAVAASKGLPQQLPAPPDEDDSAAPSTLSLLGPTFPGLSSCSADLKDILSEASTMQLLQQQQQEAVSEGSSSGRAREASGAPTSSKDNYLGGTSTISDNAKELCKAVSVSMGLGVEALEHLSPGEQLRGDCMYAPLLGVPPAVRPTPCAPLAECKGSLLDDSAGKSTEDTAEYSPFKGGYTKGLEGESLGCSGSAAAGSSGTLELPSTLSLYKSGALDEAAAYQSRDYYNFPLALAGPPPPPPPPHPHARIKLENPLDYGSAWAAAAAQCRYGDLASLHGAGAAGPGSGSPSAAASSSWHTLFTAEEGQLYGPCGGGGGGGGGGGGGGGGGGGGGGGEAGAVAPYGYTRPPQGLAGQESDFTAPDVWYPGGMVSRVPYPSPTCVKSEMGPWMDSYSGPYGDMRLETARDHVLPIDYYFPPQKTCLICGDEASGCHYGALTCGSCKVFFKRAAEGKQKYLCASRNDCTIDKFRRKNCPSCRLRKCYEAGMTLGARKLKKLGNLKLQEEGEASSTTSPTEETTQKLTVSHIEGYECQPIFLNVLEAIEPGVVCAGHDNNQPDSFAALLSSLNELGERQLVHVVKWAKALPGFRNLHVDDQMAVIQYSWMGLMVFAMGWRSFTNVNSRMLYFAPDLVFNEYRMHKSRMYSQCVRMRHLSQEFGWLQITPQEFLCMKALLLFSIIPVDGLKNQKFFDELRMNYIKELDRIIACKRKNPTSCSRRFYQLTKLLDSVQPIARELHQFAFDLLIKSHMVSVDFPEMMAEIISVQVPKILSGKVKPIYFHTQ
Experiment: eGFP cellular AR transcription assay (LNCaP eGFP cells, LN-ARR2PB-eGFP)
Details: LNCaP, read-out: % Inhibition (3 μM)
Decide by inhibition at 3 µM: equal to or exceeding 70% means rule met, less means rule not met.

Consider the worked cases shown below.
COMPOUND	TARGET_UNDER_TEST	LABEL_VALUE
Cc1ccc2sc(N3CCOCC3)nc2c1C	androgen receptor (AR) (Homo sapiens, UniProt P10275, T878A)	rule met
Nc1nc(-c2ccc3c(c2)CCCC3)cs1	androgen receptor (AR) (Homo sapiens, UniProt P10275, T878A)	rule not met
Nc1ccccc1CN1C(=O)Cc2ccccc21	androgen receptor (AR) (Homo sapiens, UniProt P10275, T878A)	rule met

Lab note: next compound to report on.
### Prompt Dear colleague, could you confirm whether Nc1ccccc1-c1csc(N2CCOCC2)n1 has inhibition at 3 µM at or above 70%?
### Response rule met

----------
Target: androgen receptor (AR) (Homo sapiens, UniProt P10275, T878A)
Experiment: eGFP cellular AR transcription assay (LNCaP eGFP cells, LN-ARR2PB-eGFP)
Conditions: eGFP IC50 (μM), Series 1
Items are presented alongside their recorded IC50.
Give your result in µM as a bare value.

Brc1ncn(-c2csc(N3CCOCC3)n2)c1Br 0.1
Clc1c(Br)ncn1-c1csc(N2CCOCC2)n1 1.3
Nc1ccccc1-c1nc(-c2cccnc2)cs1 2.3
Oc1c(-c2csc(N3CCOCC3)n2)ccc(F)c1F 0.8
Cc1[nH]c2ccccc2c1-c1csc(N2CCOCC2)n1 6.89
COc1c(F)cc(O)cc1-c1csc(N2CCOCC2)n1 3.7
c1ccc2c(-c3csc(N4CCOCC4)n3)cccc2c1 1.61
Cc1sc(CO)c(-c2csc(N3CCOCC3)n2)c1C 0.4
c1csc(-c2nc(-c3c[nH]c4ccccc34)cs2)c1 2.18

Next:
### Prompt Supply recorded IC50 for Fc1ccc(-c2csc(N3CCSCC3)n2)cc1 here.
### Response 1.6

----------
Target: AR hormone binding site (recombinant wild type LBD) (Rattus norvegicus, UniProt P15207)
Construct: displace DHT from the ABS site of recombinant wild type LBD
Sequence (P15207 651-882 limits assumed): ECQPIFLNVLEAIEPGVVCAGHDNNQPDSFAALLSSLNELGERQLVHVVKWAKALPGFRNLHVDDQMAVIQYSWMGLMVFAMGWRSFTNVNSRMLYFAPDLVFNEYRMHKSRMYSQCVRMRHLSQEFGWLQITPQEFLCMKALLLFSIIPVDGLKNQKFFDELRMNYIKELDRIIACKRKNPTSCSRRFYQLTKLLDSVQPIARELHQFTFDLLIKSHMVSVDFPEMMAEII
Assay: Androgen displacement assay (Polar Screen Androgen Receptor Competitor Green Assay Kit)
Settings: fluorescence polarization
ASSAY_ENDPOINT: Androgen Displacement IC50

c1ccc(-c2csc(N3CCOCC3)n2)nc1 No displacement
c1cc(-c2csc(N3CCOCC3)n2)cs1 No displacement
c1cc(-c2csc(N3CCOCC3)n2)ccn1 No displacement

----------
Molecular target: androgen receptor (AR) (Homo sapiens, UniProt P10275, T878A)
Test: eGFP cellular AR transcription assay (LNCaP eGFP cells, LN-ARR2PB-eGFP)
Settings: LNCaP, read-out: % Inhibition (3 μM)
ASSAY_ENDPOINT: inhibition at 3 µM (%)
Give your result in % as a bare value.

COMPOUND	ASSAY_ENDPOINT	TEST_RESULT
N#Cc1cc(N2CCOCC2)nc2ccccc12	inhibition at 3 µM	103
Fc1ccc(-c2csc(N3CCOCC3)n2)cc1	inhibition at 3 µM	44.9
NC(=O)c1ccc(-c2ccc3ccccc3n2)cc1	inhibition at 3 µM	14.5
Cc1[nH]c2ccccc2c1-c1csc(N2CCOCC2)n1	inhibition at 3 µM	64
Fc1ccc(-c2csc(N3CCOCC3)n2)cc1F	inhibition at 3 µM	115

### Prompt Enter inhibition at 3 µM (test system androgen receptor (AR) (Homo sapiens, UniProt P10275, T878A)) for c1cncc(-c2csc(-c3c[nH]c4ccccc34)n2)c1
### Response 86.3

### Prompt Enter inhibition at 3 µM (test system androgen receptor (AR) (Homo sapiens, UniProt P10275, T878A)) for c1csc(-c2nc(-c3c[nH]c4ccccc34)cs2)c1
### Response 80.5

### Prompt Enter inhibition at 3 µM (test system androgen receptor (AR) (Homo sapiens, UniProt P10275, T878A)) for N#Cc1ccc(-c2nc3ccccc3s2)cc1
### Response 82.5

### Prompt Enter inhibition at 3 µM (test system androgen receptor (AR) (Homo sapiens, UniProt P10275, T878A)) for NC(=S)N/N=C1\Cc2cccc3cccc1c23
### Response 92.5

### Prompt Enter inhibition at 3 µM (test system androgen receptor (AR) (Homo sapiens, UniProt P10275, T878A)) for Oc1ccc(-c2csc(-c3ccccc3)n2)cc1
### Response 125

### Prompt Enter inhibition at 3 µM (test system androgen receptor (AR) (Homo sapiens, UniProt P10275, T878A)) for OCc1cccc(-c2ccc3ccccc3n2)c1
### Response 44.9

----------
Target: AR hormone binding site (recombinant wild type LBD) (Rattus norvegicus)
Construct: displace DHT from the ABS site of recombinant wild type LBD
Assay: Androgen displacement assay (Polar Screen Androgen Receptor Competitor Green Assay Kit)
Details: fluorescence polarization
ASSAY_ENDPOINT: pIC50
In simple prose, pIC50 is minus the logarithm base ten of a concentration in moles per litre.

### Prompt Supply recorded pIC50 for COc1c(F)cccc1-c1csc(N2CCOCC2)n1 [Compound 14368] here.
### Response 4.50

----------
Biological target: androgen receptor (AR) (Homo sapiens, UniProt P10275, T878A)
Sequence (P10275 1-920 T878A): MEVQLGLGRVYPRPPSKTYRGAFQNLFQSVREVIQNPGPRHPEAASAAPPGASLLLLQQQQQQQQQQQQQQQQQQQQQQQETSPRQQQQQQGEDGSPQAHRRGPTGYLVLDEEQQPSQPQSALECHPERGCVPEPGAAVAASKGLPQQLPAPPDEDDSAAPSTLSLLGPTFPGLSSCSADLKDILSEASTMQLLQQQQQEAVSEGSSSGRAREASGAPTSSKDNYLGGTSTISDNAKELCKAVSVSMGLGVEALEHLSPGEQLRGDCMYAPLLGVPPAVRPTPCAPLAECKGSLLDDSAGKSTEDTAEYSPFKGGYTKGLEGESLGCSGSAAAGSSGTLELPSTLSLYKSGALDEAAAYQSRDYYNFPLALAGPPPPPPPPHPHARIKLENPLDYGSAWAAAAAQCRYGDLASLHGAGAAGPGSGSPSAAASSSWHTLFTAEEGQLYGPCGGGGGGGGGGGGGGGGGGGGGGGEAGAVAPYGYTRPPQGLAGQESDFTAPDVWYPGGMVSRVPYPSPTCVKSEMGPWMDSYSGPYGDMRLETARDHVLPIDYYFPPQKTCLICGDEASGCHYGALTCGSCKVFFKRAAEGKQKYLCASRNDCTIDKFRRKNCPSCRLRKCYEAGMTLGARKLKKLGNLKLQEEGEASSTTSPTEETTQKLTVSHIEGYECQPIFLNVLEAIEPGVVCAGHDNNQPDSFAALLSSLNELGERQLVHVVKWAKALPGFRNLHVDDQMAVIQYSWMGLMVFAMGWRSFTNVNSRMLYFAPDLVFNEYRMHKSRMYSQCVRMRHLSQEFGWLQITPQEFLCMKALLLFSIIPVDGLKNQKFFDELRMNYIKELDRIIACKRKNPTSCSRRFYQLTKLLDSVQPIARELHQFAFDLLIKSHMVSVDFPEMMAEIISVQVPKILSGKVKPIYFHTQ
Test: eGFP cellular AR transcription assay (LNCaP eGFP cells, LN-ARR2PB-eGFP)
ASSAY_ENDPOINT: % Inhibition (3 μM)

Below, each entry is followed by its recorded % Inhibition (3 μM) result.
COMPOUND	% Inhibition (3 μM)
CCc1ccc(-c2csc(N3CCOCC3)n2)cc1 [Compound 14259]	26.26%
Clc1ccc(-c2csc(N3CCOCC3)n2)cc1Cl [Compound 14266]	82.19%

### Prompt Supply recorded % Inhibition (3 μM) for Brc1ccc(-c2csc(N3CCOCC3)n2)cc1 [Compound 14251] here.
### Response 7.96%

### Prompt Supply recorded % Inhibition (3 μM) for c1ccc2sc(-c3csc(N4CCOCC4)n3)nc2c1 [Compound 14137] here.
### Response 37.44%

### Prompt Supply recorded % Inhibition (3 μM) for Cc1ccc(-c2nc(N3CCOCC3)sc2C)cc1 [Compound 14284] here.
### Response 30.22%

### Prompt Supply recorded % Inhibition (3 μM) for COc1cccc(-c2csc(-c3ccccn3)n2)c1 [Compound 14343] here.
### Response 16.12%

### Prompt Supply recorded % Inhibition (3 μM) for c1ccn(-c2csc(N3CCOCC3)n2)c1 [Compound 14411] here.
### Response 44.00%

### Prompt Supply recorded % Inhibition (3 μM) for CS(=O)(=O)c1ccc(-c2csc(N3CCOCC3)n2)cc1 [Compound 14277] here.
### Response 12.71%

### Prompt Supply recorded % Inhibition (3 μM) for CSc1ccc(-c2csc(N3CCOCC3)n2)cc1 [Compound 14297] here.
### Response 109.99%

### Prompt Supply recorded % Inhibition (3 μM) for CC1CN(c2nc(-c3ccc(Cl)cc3)cs2)C(C)CO1 (stereo not drawn) [Compound 14248] here.
### Response 4.73%

### Prompt Supply recorded % Inhibition (3 μM) for Nc1ccc(-c2csc(N3CCOCC3)n2)cc1 [Compound 14256] here.
### Response 28.14%

### Prompt Supply recorded % Inhibition (3 μM) for Fc1ccc(-c2csc(N3CCNCC3)n2)cc1 [Compound 14340] here.
### Response 16.12%

Source listed as patent US10011573B2.
